Values were extracted from patent US7608627B2.

Counter-ions that a name gives are not always drawn.
Property name: melting point

{"Molecule": "O=C(NC(c1ccccc1)c1cc2ccncc2[nH]1)c1ccncc1 (stereo not drawn)", "melting point": "182 to 192 °C"}

According to the records, this molecule OC(c1ccccn1)c1cc2ccncc2[nH]1 (stereo not drawn) displays melting point of 166 to 169 °C

According to the records, this molecule Cl.Clc1nccc2cc(CNC3CCN(Cc4ccccc4)CC3)[nH]c12 displays melting point of 295 to 310 °C (dec.)

According to the records, this molecule O=C(c1cc2ccnc(Cl)c2[nH]1)N1CCCC1 displays melting point of 152 to 154 °C

According to the records, this molecule N=C(N)N/N=C(\c1ccccc1)c1cc2cc(Cl)ncc2[nH]1 (as salt: hydrochloride) displays melting point of 274 to 278 °C

According to the records, this molecule O=C(NCc1cccnc1)c1cc2ccnc(Cl)c2[nH]1 displays melting point of 189 to 191 °C

According to the records, this molecule CC(=O)c1cc2ccncc2[nH]1 displays melting point of 236 to 242 °C (dec.)

According to the records, this molecule COc1ccc(/C(=N/OCCN)c2cc3ccncc3[nH]2)cc1 (single isomer, unassigned) (as salt: hydrochloride) [Example 124, dihydrochloride] displays melting point of 178 to 184 °C

According to the records, this molecule CC(C)(C)OC(=O)NCCO/N=C(\c1ccc(Cl)cc1)c1cc2ccncc2[nH]1 (single isomer, unassigned) displays melting point of 166 to 169 °C

----------
Catalogue of molecules with associated melting point

Study these solved cases before continuing.
{"Molecule": "OC(c1ccc(Cl)c(Cl)c1)c1cc2ccncc2[nH]1 (stereo not drawn)", "melting point": "264 to 266 °C (dec.)"}
{"Molecule": "CCNCc1cc2ccnc(Cl)c2[nH]1.Cl", "melting point": "242 to 245 °C (dec.)"}
{"Molecule": "O=C(c1cc2ccnc(Cl)c2[nH]1)N1CCOCC1", "melting point": "170 to 171 °C"}

According to the records, this molecule O=C(NCc1cccnc1)c1cc2ccnc(N(Cc3ccccc3)Cc3ccccc3)c2[nH]1 displays melting point of 105 to 108 °C

According to the records, this molecule O=C(O)CO/N=C(\c1ccccc1)c1cc2ccncc2[nH]1 displays melting point of 68 to 73 °C

According to the records, this molecule O=C(c1ccc(Cl)c(Cl)c1)c1cc2ccncc2[nH]1 displays melting point of 274 to 277 °C (dec.)

According to the records, this molecule O=C(NCc1ccccn1)c1cc2ccncc2[nH]1 displays melting point of 230 to 236 °C

----------
Counter-ions that a name gives are not always drawn.
Property name: melting point

Study these solved cases before continuing.
{"Compound": "O=C(Nc1ccccn1)c1cc2ccnc(Cl)c2[nH]1", "melting point": "94 to 102 °C"}
{"Compound": "Clc1nccc2cc(C(NCc3ccccc3)c3ccccc3)[nH]c12 (stereo not shown) (as salt: hydrochloride) [Example 34, dihydrochloride]", "melting point": "170 to 185 °C (dec.)"}
{"Compound": "O=C(Nc1ccncc1)c1cc2ccnc(Cl)c2[nH]1", "melting point": "> 320 °C"}
{"Compound": "OC(c1ccccc1)c1cc2ccnc(N(Cc3ccccc3)Cc3ccccc3)c2[nH]1 (stereo not shown)", "melting point": "53 to 61 °C"}

According to the records, this compound CC(C)(C)OC(=O)CO/N=C(\c1ccccc1)c1cc2ccncc2[nH]1 displays melting point of 47 to 52 °C

According to the records, this compound Cl.Clc1nccc2cc(CNCc3ccccc3)[nH]c12 displays melting point of 201 to 204 °C

According to the records, this compound CC(N)c1cc2ccncc2[nH]1 (stereo not shown) (as salt: hydrochloride) [Example 75, dihydrochloride] displays melting point of 289 to 292 °C

According to the records, this compound CC(C)/C(=N\NC(=N)N)c1cc2ccncc2[nH]1 (as salt: hydrochloride) displays melting point of 242 to 245 °C

According to the records, this compound O=C(NCc1ccncc1)c1cc2ccnc(N(Cc3ccccc3)Cc3ccccc3)c2[nH]1 displays melting point of 119 to 120 °C

According to the records, this compound Cl.NCCCO/N=C(\c1ccccc1)c1cc2ccncc2[nH]1 displays melting point of 168 to 174 °C (dec.)

According to the records, this compound O/N=C(\c1ccccc1)c1cc2ccncc2[nH]1 displays melting point of 132 to 142 °C

According to the records, this compound Cl.NCCO/N=C(\c1ccccc1)c1cc2ccncc2[nH]1 [Example 95] displays melting point of 161 to 165 °C (dec.)

According to the records, this compound O=C(c1ccoc1)c1cc2ccncc2[nH]1 displays melting point of 232 to 236 °C (dec.)
